Hey, just so you know, these numbers are from the supplement of paper PMC9170038.

System: K4 kissing-loop RNA reporter;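 note: bound reporter read as fluorescence of individual clusters on recovered sequencing chips by microscopy, with normalized cluster intensities fitted with a binding model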
Assay: apparent KD of K4 kissing-loop reporter; higher = weaker reporter binding
Settings: Eterna round: R107; input ligand: tryptophan 2.4 mM
The label depends only on apparent KD of K4 kissing-loop reporter: 1.0 if it is at least 0.1 µM, 0.0 if it is smaller.

Req: Determine whether this sequence has apparent KD of K4 kissing-loop reporter no lower than 0.1 µM: UAGAGGAGACUCUAAUUCCUUAAGUCCGAAGGAGCGACCCAAUGGUCAGGUAGGUCGCGGACAAUCCUAGUGAUGUUAGGAUCUG [Arg A SS t5a]
Resp: 1.0

Req: Evaluate UAACCUGUAAACGAUACCAGUUGCAUGGAAACUUGGUACUAGCUAGUGAUGUUAGCAAGCAACCCUUGGCAGCGUCGCCUGACAG [theeternabot_sameState_KL_Theo_B_17] : apparent KD of K4 kissing-loop reporter at minimum 0.1 µM?
Resp: 1.0

Req: Does apparent KD of K4 kissing-loop reporter meet or surpass 0.1 µM for UACUAUAGUGAUGUUAUAGAUAAAACAGAUACCAGUGUUACAUAACACCCUUGGCAGCUGAAAAGGGAAAGUAUAAAUGUGUAUU [AstrosSSTHe-A#1newdesignED] ?
Resp: 1.0

Req: Hello, I need to know if GUGCAGUGAUGUUGCACGAGGAAAGACGAUACCAGCCGUAAAUAAGGCCCUUGGCAGCGUAGGCUAGCAUAAAGUAUGCCAGUCU [Geleerra] has measured apparent KD of K4 kissing-loop reporter not below 0.1 µM. Thanks!
Resp: 0.0

Req: Threshold query (apparent KD of K4 kissing-loop reporter >= 0.1 µM) on UCGAUGGCCAGCGAUACCAGCCCAGUGAUGUUGGGCACAUGGUUGCGGGAAAUCCCAUUGGGCCCUUGGCAGCGCUUGCAUGGGU [Dizaisa]
Resp: 1.0

Req: Can GGCCGGAAGGCGAGCGCUCCCACUCCGGAAGGAGCGCCCGGAAGGGCAGGUAGGUCGCCGGAGUGAUGUUCCGGUGGAGGGCUCG [#2 Exclusion - Arginine A Attempt #19 (Inspired by Omei)] be said to have apparent KD of K4 kissing-loop reporter at or above 0.1 µM?
Resp: 0.0

Req: Hello, I need to know if AUUAAUUUCAGAGGAUAUCGUUAUUUUUUAUAGUAUAUUCAAUUAUGCAGUGAUGUUGCUAUUAAUCGAGAAGGCUGAUUUAUAA [JR_ExcFMNB_Sub002] has measured apparent KD of K4 kissing-loop reporter not below 0.1 µM. Thanks!
Resp: 1.0

Req: Reported apparent KD of K4 kissing-loop reporter reaches at least 0.1 µM for UGUGUUUACCUGACUCAGUGAUGUUGAGAAGGAGCGUGCAAACGCACAGGUAGGUCGCUCAACCUAAAUUCAGGUGAGCACUAAA ?
Resp: 1.0

Req: Please indicate if the recorded apparent KD of K4 kissing-loop reporter for AAAUAGAUCAGUCACCCAGUGAUGUUGGAAGGAGCGUGCGAAAGCACAGGUAGGUCGCCAAAAUAAAAUUGGCUGAUCAAAAUAA meets or exceeds 0.1 µM.
Resp: 1.0

Req: Assess whether reported apparent KD of K4 kissing-loop reporter for GCUAUGGUUGGAAGGAGCGUUGAAUUGUUAGUAAGAGUGAUGUUCGAUAGUGGACAGUUGUAGCAGGUAGGUCGCCAACUAUAGC [KL-Arg B28] sits at 0.1 µM or higher.
Resp: 1.0

Req: Hello, I need to know if ACUUAUUGUGUCGAUACCAGCAGGUGACGACGCCUCAUGGCUGACGAGUGAUGUUCGACUUGCCCUUGGCAGCGACAUACGCCGG [theeternabot_sameState_KL_Theo_B_12] has measured apparent KD of K4 kissing-loop reporter not below 0.1 µM. Thanks!
Resp: 1.0

Req: Is the recorded value of apparent KD of K4 kissing-loop reporter equal to or greater than 0.1 µM for this sequence? GAUCUAUGUCCCGAUACCAGCUCAGAAGCUAGGGAGUGAUGUUCUCGGAGGUUAUCACUGAGCCCUUGGCAGCGGAACGUGACGA [theeternabot_sameState_KL_Theo_B_26]
Resp: 1.0
